# credit: PubChem BioAssay

test.method.notes: antimalarial activity against Dd2 strain (AID 2302)
condition.notes: P. falciparum Dd2 in RBCs, LDH growth readout, 72 h; at 2 µM
Active and inactive are the calls of the source.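 How the source made its calls: active means growth inhibition above 50% at the single 2 µM test dose, taken to imply half-maximal potency below 2 µM; inactive means the rest.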
Outcomes: TRUE for active, FALSE for inactive

1. c1csc(-c2nc(N3CCCCC3)ncc2-c2ccsc2)n1    TRUE
2. NCCCNc1nc(Nc2ccc(C(F)(F)F)cc2F)c2c(=O)[nH]ccc2n1    FALSE
3. CCCN1CC[C@@H](CCCc2ccnc3ccc(O)cc23)[C@@H](CC)C1    FALSE
4. COc1ccc(C(=O)Nc2cc(Br)c3c(c2)CNCC3)cc1C(F)(F)F    FALSE
5. COc1ccc(CNCc2cccc(-c3ccc(-c4nc5c(C)cccc5[nH]4)s3)c2)cc1    TRUE
6. COc1ccc(CCNCc2cc3c(C(C)(C)C)nn(-c4ccc(Cl)cc4)c3[nH]c2=O)cc1OC    TRUE
7. CN(C)CCNC(=O)c1ccc(-c2ccc3c(Nc4ccccc4)c(C(N)=O)cnc3c2)cc1    TRUE
8. O=C(/C=C/c1ccc(C(F)(F)F)cc1)NCCCCCN1CCC(c2c[nH]c3ccccc23)CC1    FALSE
9. NC1CCCN(Cc2ccc(-c3cccc(-c4nc5ccc(F)cc5[nH]4)c3)cc2)C1 (stereo not drawn)    TRUE
10. O=C(Nc1ccc(Oc2ccccc2)cc1)N(Cc1ccc(-c2ccc(CN3CCNCC3)cc2)cc1)C1CCN(Cc2ccccc2)CC1    TRUE
11. CC1(C)N=C(N)N=C(N)N1c1ccc(Br)cc1    FALSE
12. CCOC(=O)c1c(CN2CCCC2)n(-c2ccccc2)c2cc(Br)c(O)cc12    TRUE
13. O=C(NC1CCN(Cc2ccccc2)CC1)c1cccc(-c2nc3ccc(Cl)cc3[nH]2)c1    FALSE
